METHOD_SUMMARY: Systemic exposure and pharmacokinetics after single oral gavage dose of 200 mg/kg in fasted male SD rats
Type: in vivo, Sprague Dawley (SD) rats
ASSAY_CONTEXT: male, Sprague-Dawley, rat, plasma, po, fasted male SD rats, single PO dose 200 mg/kg, mean ± SD, read-out: AUC0-24
Give AUC(0-t) for every item shown.
One number for each entry, in µg·h/mL.

> print(dat)
                                   compound  reported.result
1  CCc1cnc(N2CCC(c3nc(COc4ccc(-n5cnnn5)cc4)cs3)CC2)nc1.Cl [HCl Salt Form I]              454

Now look at this entry.
Query: # return recorded AUC(0-t) for entry CCc1cnc(N2CCC(c3nc(COc4ccc(-n5cnnn5)cc4)cs3)CC2)nc1
Result: 233
